Attribution: ChEMBL document CHEMBL1201862

tested on: HL-60; test: NCI tumour cell line growth inhibition, 48 h
Calls of active or inactive are those of the source. Cut-off read from the data, not from the text of the source: active = GI50 up to about 1.1 µM and inactive = higher.
Recorded endpoint: GI50

{"Compound": "O=C(/C(=N\\Nc1ccc([N+](=O)[O-])cc1[N+](=O)[O-])NC12CC3CC(CC(C3)C1)C2)C(Br)C(=O)c1ccccc1 (centres undefined)", "Measurement target": "HL-60", "Observed measurement": "2.94 µM (inactive)"}
{"Compound": "Cc1cc(CN(Cc2ccccc2)Cc2nc3ccccc3[nH]2)c(O)c(CN(Cc2nc3ccccc3[nH]2)Cc2nc3ccccc3[nH]2)c1", "Measurement target": "HL-60", "Observed measurement": "2.16 µM (inactive)"}
{"Compound": "ClC1=C(Cl)C(Cl)(Cl)c2c3c(c4c(c21)C(Cl)(Cl)C(Cl)=C4Cl)C(Cl)(Cl)C(Cl)=C3Cl", "Measurement target": "HL-60", "Observed measurement": "> 100 µM (inactive)"}
{"Compound": "O=C1CCCCC1CN1CCCC1 (centres undefined)", "Measurement target": "HL-60", "Observed measurement": "> 10 µM (inactive)"}
